Entries and their measured viability increase follow.
assay: doxorubicin toxicity protection in MRP-1 cells – H69AR cells, CellTiter-Glo, duplicate, MRP-1 activator project, pilot screen (AID 807); details: H69AR viability with doxorubicin, CellTiter-Glo luminescence; at 10 µM; hits give high values;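 also: compound pretreatment 18-22 h then 72 h combined with doxorubicin; 0% = doxorubicin alone and 100% = vehicle without doxorubicin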
Give your result in % as a bare value.

Check out these entries, answers already filled in.
1. NC(=O)c1ccc(N2CCCCC2)c(N2C(=O)C3C4C=CC(C4)C3C2=O)c1 (stereo not drawn) | -2.98
2. COc1ccc(C(=O)CSc2nnc(-c3ccccc3)o2)cc1 | -0.88
3. COc1ccc(OC)c(-c2nc(C(N)=O)c3[nH]c(=O)n(-c4ccc(F)cc4)c3n2)c1 | -2.73
4. O=C(Nc1nc2ccccc2s1)c1ccc(Cl)s1 | -3.11
5. COc1cc(Cl)c(S(=O)(=O)NCc2cccnc2)cc1Cl | 0.38

Asked: Request the reported viability increase associated with CCC(C)(C(=O)NC1CCCCC1)N(Cc1ccco1)C(=O)CC1NC(=O)NC1=O (stereo not drawn)
Given back: -3.95

Asked: Request the reported viability increase associated with O=C(NCC1COc2ccccc2O1)C1C2C=CC3(CN(Cc4ccccc4Cl)C(=O)C13)O2 (stereo not drawn)
Given back: -1

Asked: Request the reported viability increase associated with COc1ccc(C(=O)n2nc(C)cc2C)cc1Br
Given back: -0.08

---

Entries and their measured viability follow.
test: viability of PTEN-null HCT116 cells – cell-based, HCT116 clonal line, CellTiter-Glo, pilot screen (AID 824); settings: HCT116 PTEN-deleted viability, 60 h, at 10 µM, hits give low values;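 also: 0% = 20 µM Hyamine control and 100% = vehicle cell control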
Results filed as inconclusive are left out.
Give your result in % as a bare value.

1) COc1ccc(NC(=O)c2c(-c3ccccc3)noc2C)c(OC)c1 | 92.6
2) COc1ccc(-n2c(SCC(=O)N3CCCC3)nc3c([nH]c4ccccc43)c2=O)cc1 | 93.7
3) CCC(=O)c1cc(F)c(N2CCN(C(=O)c3ccco3)CC2)cc1C | 88.3
4) COc1ccc(-n2c(Cc3cccn3C)nnc2SCC(N)=O)cc1 | 94.4
5) O=C(Nc1nc2c(s1)CCCC2)c1cccnc1 | 92.2

Asked: Request the reported viability associated with Brc1ccc2ncnc(Nc3ccc(N4CCOCC4)cc3)c2c1
Given back: 72.9

---

Entries and their measured viability follow.
test: viability of HCT116 without oncogenic beta-catenin – human colon tumor cells, pilot screen (AID 823); conditions: HCT116 beta-catenin knockout viability, CellTiter-Glo, 60 h; at 10 µM; hits give low values;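 also: 0% = wells killed by 20 µM Hyamine and 100% = untreated DMSO cell wells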
Results filed as inconclusive are left out.
Give your result in % as a bare value.

1. O=C(Cn1cnc2c(nnn2Cc2ccc(Cl)cc2)c1=O)N1CCN(c2ccccc2)CC1 | 82.3
2. CCOC(=O)CSC(CC)C(=O)Nc1nnc(C(C)C)s1 (stereo unspecified) | 94.6
3. O=C(O)C1CCC(=O)N1C1c2ccccc2Oc2ccccc21 (stereo unspecified) | 96
4. COCCOC(=O)c1[nH]c2c(c1C)C(=O)CC(c1ccco1)C2 (stereo unspecified) | 18.9
5. CCOC(=O)C1CCN(S(=O)(=O)C(F)(F)c2nc3ccccc3s2)CC1 | 82.2
6. CCOC(=O)c1ccc2ncc(C(=O)OCC)c(NCCN(C)C)c2c1 | 95.8
7. Fc1ccccc1N1CCN(C2CCN(Cc3c[nH]c4ccccc34)CC2)CC1 | 47.1
8. COc1ccc(N2CCN(C(=O)CSc3ccccc3)CC2)cc1 | 93.2

Asked: Request the reported viability associated with CCOC(=O)Cn1c(CN(C)Cc2ccccc2)nc2c1c(=O)n(C)c(=O)n2C
Given back: 82.9

Asked: Request the reported viability associated with Cn1nnc2cc(C(=O)N3CCCCCC3)ccc21
Given back: 109

Asked: Request the reported viability associated with COc1ccc(-c2nc(CSCC(=O)NCc3ccc4c(c3)OCO4)c(C)o2)cc1OC
Given back: 84.7

---

Entries and their measured viability follow.
test: reduced viability of SK-BR-3 breast cancer cells – cell-based, 24 h, human, pilot screen (AID 572); details: SK-BR-3 viability, CellTiter-Glo luminescence, at 10 µM, hits give low values;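 also: compound exposure lasted between 18 and 24 h rather than exactly 24 h; 100% = carrier-treated control wells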
Give your result in % as a bare value.

1. Cc1cccc(-n2nc3c(c2NC(=O)CCC2CCCCC2)CS(=O)C3)c1C (stereo unspecified) | 95

Asked: Request the reported viability associated with O=C(CSc1nnnn1-c1ccccc1)Nc1ccc(Cl)cc1
Given back: 100

Asked: Request the reported viability associated with CCc1cc2c(=O)c(-c3nc4ccccc4[nH]3)coc2c(CN2CCC(C)CC2)c1O
Given back: 96

Asked: Request the reported viability associated with CC(C)CNc1oc(-c2ccc(F)cc2)nc1C#N
Given back: 108

Asked: Request the reported viability associated with COc1ccc(-n2c(Cc3cccn3C)nnc2SCC(N)=O)cc1
Given back: 94.5

Asked: Request the reported viability associated with O=C(Cn1cc2c(n1)CCCCC2)N1CCc2ccccc21
Given back: 85.5

Asked: Request the reported viability associated with COC(=O)NCC(c1cccnc1)N1CCOCC1 (stereo unspecified)
Given back: 97

Asked: Request the reported viability associated with CCCOc1ccc(NC2=CC(=O)CC(C)(C)C2)cc1
Given back: 100

Asked: Request the reported viability associated with COc1ccc(NC(=O)NCCN2C(=O)C3C4C=CC(C4)C3C2=O)cc1 (stereo unspecified)
Given back: 96

Asked: Request the reported viability associated with CCOc1ccc(S(=O)(=O)N2CCN(c3ccc(C)cc3C)CC2)cc1
Given back: 98.5

---

assay: RAM pathway blockade in budding yeast – dse1pr::URA3 reporter, 5-FOA selection, pilot screen (AID 869);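 also: 0% = DMSO wells with no growth and 100% = 10 µM 1-NA-PP1 with full growth; RAM network block rescues cells from 5-FOA so hits raise OD615 growth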; conditions: S. cerevisiae dse1pr::URA3 5-FOA growth, OD615, 2 d; at 10 µM; hits give high values; strain carries analog-sensitive mutant Cbk1 kinase
Entries and their measured inhibition follow.
Give your result in % as a bare value.

Check out these entries, answers already filled in.
1. N#Cc1nc(COc2ccccc2Cl)oc1N1CCCCCC1 | 2.3
2. Cc1ccc2cccc(SCC(=O)N3CCOCC3)c2n1 | 2.27

Asked: Request the reported inhibition associated with CC12CCC(C(=O)N3CCN(C(=O)C45CCC(C)(C(=O)O4)C5(C)C)CC3)(OC1=O)C2(C)C
Given back: 1.42

Asked: Request the reported inhibition associated with N#CCCN1CCN(S(=O)(=O)c2ccc(S(=O)(=O)NC3CCCC3)cc2)CC1
Given back: 2.69

Asked: Request the reported inhibition associated with CCN1CCN(C(=O)c2cc3c(-c4ccc(Cl)cc4)nn(C)c3s2)CC1
Given back: 2.21

Asked: Request the reported inhibition associated with COc1ccc(-n2nnc3c(=O)n(CC(=O)N4CCC(C)CC4)cnc32)cc1
Given back: 1.77

Asked: Request the reported inhibition associated with CCCn1c(OC)nc2c1c(=O)n(C)c(=O)n2C
Given back: 2.22

Asked: Request the reported inhibition associated with O=C(CSc1cn(Cc2ccccc2)c2ccccc12)Nc1nccs1
Given back: 1.73

Asked: Request the reported inhibition associated with COC(=O)C1C2C=CC3(CN(c4cccc(Cl)c4)C(=O)C13)O2 (stereo not drawn)
Given back: 1.06

Asked: Request the reported inhibition associated with COC(=O)c1ccsc1NC(=O)CN1C(=O)CCC1=O
Given back: -0.08

Asked: Request the reported inhibition associated with CCOC(=O)N1CCC(Nc2ncnc3c2cnn3-c2ccc(C)cc2C)CC1
Given back: 0.78

Asked: Request the reported inhibition associated with COc1ccccc1C1NC(=O)NC(C)=C1C(=O)Nc1cccc(C)c1C (stereo not drawn)
Given back: 0.77

Asked: Request the reported inhibition associated with CC(C)Cc1nnc(NS(=O)(=O)c2ccc(Cl)cc2)s1
Given back: 1.43

---

Entries and their measured RAM network inhibition follow.
assay: RAM signaling pathway blockade in yeast – S. cerevisiae, Pdr1DBD-CYC8 efflux-inhibited sensitized strain, primary screen (AID 1298);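 also: 0% = DMSO untreated cells without growth and 100% = 10 µM 1-NA-PP1 full growth; higher means more yeast growth rescued from 5-FOA killing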; conditions: S. cerevisiae cbk1-as DSE1-URA3 strain, 5-FOA growth OD615, 2 d; at 50 µM; hits give high values
Give your result in % as a bare value.

Check out these entries, answers already filled in.
1) COc1ccc(CCNC(=O)C2(C)CCC(=O)N2Cc2ccc3c(c2)OCO3)cc1OC (stereo not given) | 1.36
2) COc1ccc2[nH]c(C)c(CCN3C(=O)OC(C)(C)C3(C)O)c2c1 (stereo not given) | 2.87
3) Cc1ccccc1-c1nc(CN2CCC(C(=O)N3CCC(C(N)=O)CC3)CC2)c(C)o1 | 2.99
4) CC1CCN(c2oc(-c3ccccc3F)nc2C#N)CC1 | 2.79
5) CC1CCCCC1NC(=O)CCS(=O)(=O)c1cccc2nonc12 (stereo not given) | 0.88

Asked: Request the reported RAM network inhibition associated with COc1ccccc1N1CCN(C(=O)C2CCN(S(=O)(=O)c3ccc(F)cc3)CC2)CC1
Given back: 4.6

---

test: H69AR cell proliferation blockers – human, duplicate replicates, primary screen (AID 580); settings: H69AR lung tumor cells viability, ATP luminescence, 72 h; at 10 µM; hits give low values;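 also: 100% = mean luminescence of untreated wells and 0% = no signal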
The source made the active and inactive calls.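 The calls were made as follows: active = viability at or under a set limit in both replicates, limit being median viability minus 3 SD (cut at about 48% in these data, passing the limit was not always enough); inconclusive = at or under the limit in just one replicate; inactive = at or above the limit in both replicates.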
Entries and their measured viability follow.

1) COc1cc(C2N3CC4(C)CN2CC(C)(C3)C4)ccc1O (stereo unspecified) | 104% (inactive)

Asked: Request the reported viability associated with Cc1cccc(OCC(=O)N2CCN(C(=O)Cc3ccccc3)CC2)c1
Given back: 97.3% (inactive)

Asked: Request the reported viability associated with Cc1ccc2oc(=O)c3cnn(CC(=O)N4CCCCC4C)c3c2c1 (stereo unspecified)
Given back: 89.2% (inactive)
